assay: Rat pharmacokinetic study (IV and PO); type: in vivo; details: blood, PO 10 mg/kg
reported property: AUC(0-t) (ng·h/mL)

O=C(Nc1ccc(-c2nc(N3CCOCC3)c3cccn3n2)cc1)Nc1cccnc1; 4900

[A] CC(C)(C)C(=O)OCCNC(=O)Nc1ccc(-c2nc(N3CCOCC3)c3cccn3n2)cc1
[B] O=C(NCCO)Nc1ccc(-c2nc(N3CCOCC3)c3cccn3n2)cc1
Data request: Hi! Which is lower in terms of AUC(0-t), the first one A or the second one B ? Write down the label attached to your selection.
Data returned: B

[1] OCCNC(=S)Nc1ccc(-c2nc(N3C[C@H]4CC[C@@H](C3)O4)c3cccn3n2)cc1
[2] S=C(Nc1ccc(-c2nc(N3CCOCC3)c3cccn3n2)cc1)Nc1cccnc1
[3] O=C(NCCO)Nc1ccc(-c2nc(N3C[C@H]4CC[C@@H](C3)O4)c3cccn3n2)cc1
Data request: Reorder the items by AUC(0-t), least to greatest. # list labels per requested ordering
Data returned: 3, 1, 2
